Assay Info: Toxicity in po dosed nude mouse xenografted with human HCT116 cells administered bid
Format: organism-based, HCT-116
Study Conditions: in vivo

{"Chem Smiles": "O=C(N[C@H](CO)c1ccc(Cl)c(F)c1)N1CCc2cnc(NC3CCOCC3)nc2C1", "Unit Descriptor": "mg/kg", "MTD": 50}

###

# Mitogen-activated protein kinase 1 (Homo sapiens, UniProt P28482): IC50 values follow
# Sequence (P28482 whole entry): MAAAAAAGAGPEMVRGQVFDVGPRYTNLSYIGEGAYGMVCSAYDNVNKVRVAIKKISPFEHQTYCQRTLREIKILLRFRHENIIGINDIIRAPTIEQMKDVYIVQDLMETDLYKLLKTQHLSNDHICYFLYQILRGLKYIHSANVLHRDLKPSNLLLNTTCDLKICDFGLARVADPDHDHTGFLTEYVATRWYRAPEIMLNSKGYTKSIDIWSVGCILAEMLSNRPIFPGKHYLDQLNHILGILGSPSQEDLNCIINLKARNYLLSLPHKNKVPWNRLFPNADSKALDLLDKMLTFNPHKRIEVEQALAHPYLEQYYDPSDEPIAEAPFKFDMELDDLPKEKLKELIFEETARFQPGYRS

{"Chem Smiles": "CC(C)Nc1ncc2c(n1)CN(C(=O)N[C@@H](c1ccc(F)c(Cl)c1)[C@@H](C)O)CC2", "IC50 / nM": 88}
{"Chem Smiles": "CC[C@@H](NC(=O)N1CCc2cnc(N[C@@H](C)CO)nc2C1)c1ccc(F)c(F)c1", "IC50 / nM": 51}
{"Chem Smiles": "COCCOC[C@@H](NC(=O)N1CCc2cnc(NC(C)C)nc2C1)c1ccc(F)c(Cl)c1", "IC50 / nM": 2110}
{"Chem Smiles": "O=C(N[C@H](CO)c1ccc(F)c(Cl)c1)N1CCc2cnc(Nc3ccc(F)cc3)nc2C1", "IC50 / nM": 348}
{"Chem Smiles": "CC(C)Nc1ncc2c(n1)CN(C(=O)N[C@@H](c1ccc(F)c(Cl)c1)[C@H](C)O)CC2", "IC50 / nM": 200}
{"Chem Smiles": "C[C@@H](CO)Nc1ncc2c(n1)CN(C(=O)N[C@H](C)c1ccc(C(F)(F)F)c(F)c1)CC2", "IC50 / nM": 110}
{"Chem Smiles": "COc1ccc(CNC(=O)N2CCc3cnc(NC(C)C)nc3C2)cc1", "IC50 / nM": 4400}
{"Chem Smiles": "O=C(N[C@H](CO)c1ccc(F)c(Cl)c1)N1CCc2cnc(N[C@H]3CC[C@H](O)C3)nc2C1", "IC50 / nM": 198}
{"Chem Smiles": "CNC[C@@H](NC(=O)N1CCc2cnc(NC(C)C)nc2C1)c1ccc(F)c(Cl)c1", "IC50 / nM": 144}
